Readings of antagonistic activity to CRTH2 (% INH) for the listed compounds
testedTarget: human CRTH2-transfected K562 cells (Homo sapiens, UniProt Q9Y5Y4)
Construct: expressed in transfected cells; host or cells: K562 cells
Sequence (Q9Y5Y4 1-395): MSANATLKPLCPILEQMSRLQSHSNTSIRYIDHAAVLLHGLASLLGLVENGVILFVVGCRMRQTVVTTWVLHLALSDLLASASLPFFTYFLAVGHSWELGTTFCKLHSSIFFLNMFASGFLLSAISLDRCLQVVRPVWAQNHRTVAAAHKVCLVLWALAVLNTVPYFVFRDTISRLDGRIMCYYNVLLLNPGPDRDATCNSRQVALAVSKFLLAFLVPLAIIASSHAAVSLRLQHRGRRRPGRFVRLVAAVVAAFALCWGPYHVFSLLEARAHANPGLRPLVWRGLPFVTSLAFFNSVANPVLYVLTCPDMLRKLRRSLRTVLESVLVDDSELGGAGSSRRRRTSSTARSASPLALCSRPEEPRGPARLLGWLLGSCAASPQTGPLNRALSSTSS
experiment: Antagonistic activity to CRTH2: calcium mobilization assay induced by PGD2
Type: cell-based
conditionsUsed: compound at 1 μM, percent inhibition of PGD2-induced calcium mobilization
outcomeMeasure: antagonistic activity to CRTH2 (% INH)

compound	outcomeMeasure	recordedValue
O=C(O)Cn1cc(CCNS(=O)(=O)c2ccc(F)cc2)c2cc(F)ccc21	antagonistic activity to CRTH2 (% INH)	89 % INH
O=C(O)Cn1cc(C2CCCN(S(=O)(=O)c3ccc(F)cc3)C2)c2ccccc21 (centres unmarked)	antagonistic activity to CRTH2 (% INH)	100 % INH
CN(C1CCc2c(c3ccccc3n2CC(=O)O)C1)S(=O)(=O)c1ccc(Cc2ccccc2)s1 (centres unmarked)	antagonistic activity to CRTH2 (% INH)	96 % INH
O=C(O)Cn1cc(CCN(Cc2ccccc2)S(=O)(=O)c2ccc(F)cc2)c2ccccc21	antagonistic activity to CRTH2 (% INH)	91 % INH
CN(c1ccc2c(c1)c1c(n2CC(=O)O)CCCC1)S(=O)(=O)c1ccc(F)cc1	antagonistic activity to CRTH2 (% INH)	91 % INH
